B1: Transcription intermediary factor 1-beta, residues 620 to 671; numbered along this chain, Q13263 (parent)
chain: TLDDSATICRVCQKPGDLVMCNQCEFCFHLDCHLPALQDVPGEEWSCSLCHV

Variants of: B1
assay.info: abundance fitness (aPCA) (normalised: wild type 0, dead -1); higher = more abundant; growth selection in yeast, the domain comes from the species named
test.conditions: Homo sapiens
Would you please tag the item true when its abundance fitness is -0.1 or above, and false when it is below?

Does the reported abundance fitness for `D4H` fall at or above the -0.1 mark?
true

Is it the case that `G16Q` has abundance fitness reaching or exceeding -0.1?
false

Given `H33I` , state whether its abundance fitness is at least -0.1.
false

Check this variant for abundance fitness at or above -0.1: `D39W`
false

Quick check, abundance fitness >= -0.1? `V52R`
true

Does the variant `L34S` have recorded abundance fitness that is -0.1 or more?
true

Can `C32F` be said to have abundance fitness at or above -0.1?
false

Can `P15G` be said to have abundance fitness at or above -0.1?
false

Say whether `P35K` shows abundance fitness of -0.1 or more.
false

Form field: abundance fitness at least -0.1? Entry: `C24P`
false

Determine whether measured abundance fitness meets or exceeds -0.1 for `P35S`
false

Given `H33V` , state whether its abundance fitness is at least -0.1.
true

Please tell me: is the variant `C21H` at or over -0.1 in terms of abundance fitness?
false

Dear colleague, could you confirm whether `A6Q` has abundance fitness at or above -0.1?
false

Is the recorded value of abundance fitness equal to or greater than -0.1 for this variant? `C47M`
false

Could you please find out whether `Q23K` has abundance fitness that meets -0.1 or exceeds it?
false

Is abundance fitness for `L18G` at or above -0.1?
false

Textbook exercise: given the entry `P15T` , state whether its abundance fitness is greater than or equal to -0.1.
false

Check this variant for abundance fitness at or above -0.1: `D17A`
false

Quick check, abundance fitness >= -0.1? `D4P`
false

Does the reported abundance fitness for `S48W` fall at or above the -0.1 mark?
true

Has `L49H` a recorded abundance fitness greater than or equal to -0.1?
true

Could you verify whether the entry `I8Q` shows abundance fitness of no less than -0.1?
true

Is reported abundance fitness greater than or equal to -0.1 here: `P41H`
false

Reported abundance fitness reaches at least -0.1 for `L49R` ?
true

Test whether the variant `C32P` records abundance fitness of -0.1 or higher.
false

Threshold query (abundance fitness >= -0.1) on `C27Y`
true

Does the reported abundance fitness for `T1D` fall at or above the -0.1 mark?
true

Exam item: decide whether the reported abundance fitness for `L30C` is at least -0.1.
false

Given the entry `S5D` , answer whether its abundance fitness meets or surpasses -0.1.
false

Has `F26W` a recorded abundance fitness greater than or equal to -0.1?
false

Please indicate if the recorded abundance fitness for `L34K` meets or exceeds -0.1.
true

Check if abundance fitness >= -0.1 (inclusive). Item: `V52H`
false

Is it the case that `L34Q` has abundance fitness reaching or exceeding -0.1?
true

Exam item: decide whether the reported abundance fitness for `Q23N` is at least -0.1.
true

Is the recorded value of abundance fitness equal to or greater than -0.1 for this variant? `L2E`
true

hey, is abundance fitness for this one >= -0.1? `E43L`
true

Does `S48P` have a reported abundance fitness of at least -0.1?
true

Decide: abundance fitness of `L18F` >= -0.1?
false

Please indicate if the recorded abundance fitness for `L18S` meets or exceeds -0.1.
false

Assess whether reported abundance fitness for `Q13E` sits at -0.1 or higher.
true

Decide: is the reported value of abundance fitness for `T1E` equal to or greater than -0.1?
false

Is reported abundance fitness greater than or equal to -0.1 here: `C24F`
false

Hi team, for `P35E` , is the recorded abundance fitness at or above -0.1?
false

Dear colleague, could you confirm whether `Q23P` has abundance fitness at or above -0.1?
false

Could you verify whether the entry `R10Y` shows abundance fitness of no less than -0.1?
false

hey, is abundance fitness for this one >= -0.1? `C32Y`
false

Reported abundance fitness reaches at least -0.1 for `C24T` ?
false

Check the entry `G42W` : does abundance fitness equal or exceed -0.1?
false

Does the reported abundance fitness for `P41Q` fall at or above the -0.1 mark?
false

Is abundance fitness for `C9T` at or above -0.1?
false

Exam item: decide whether the reported abundance fitness for `C47P` is at least -0.1.
false

Quick check, abundance fitness >= -0.1? `V19S`
false

Please indicate if the recorded abundance fitness for `S46E` meets or exceeds -0.1.
true

Decide: abundance fitness of `R10F` >= -0.1?
false

Item `C50S` with abundance fitness of -0.1 or above?
false

Hi team, for `R10A` , is the recorded abundance fitness at or above -0.1?
false

Tell me whether abundance fitness is at least -0.1 here: `K14S`
false

Dear colleague, could you confirm whether `V40S` has abundance fitness at or above -0.1?
false

Is abundance fitness at least -0.1? Consider `C32W`
false

Is it the case that `H29Y` has abundance fitness reaching or exceeding -0.1?
false

Can `D39C` be said to have abundance fitness at or above -0.1?
false

Check the entry `D31M` : does abundance fitness equal or exceed -0.1?
false

Form field: abundance fitness at least -0.1? Entry: `C32V`
false

In plain terms: is recorded abundance fitness at least -0.1 for `Q13Y` ?
false

Does the variant `D4V` have recorded abundance fitness that is -0.1 or more?
true

Kindly determine if abundance fitness recorded for `V52T` is above or exactly -0.1.
false

Tell me whether abundance fitness is at least -0.1 here: `V19Q`
false

API: above_or_equal(metric=abundance fitness, cutoff=-0.1) for item `D3I`
false

Assess whether reported abundance fitness for `P41K` sits at -0.1 or higher.
false

Kindly determine if abundance fitness recorded for `P15A` is above or exactly -0.1.
true

Could you please find out whether `C9Q` has abundance fitness that meets -0.1 or exceeds it?
false

Form field: abundance fitness at least -0.1? Entry: `I8V`
true

Kindly determine if abundance fitness recorded for `E43Y` is above or exactly -0.1.
false

Exam item: decide whether the reported abundance fitness for `L18Y` is at least -0.1.
false

Form field: abundance fitness at least -0.1? Entry: `D31F`
false

Could you please find out whether `C9W` has abundance fitness that meets -0.1 or exceeds it?
false

I'd appreciate it if you could say whether `D4K` has abundance fitness at least equal to -0.1.
true

Exam item: decide whether the reported abundance fitness for `D3T` is at least -0.1.
false

Confirm if abundance fitness reported for the variant `A36V` is -0.1 or above.
true

Say whether `E25C` shows abundance fitness of -0.1 or more.
true

Textbook exercise: given the entry `L18H` , state whether its abundance fitness is greater than or equal to -0.1.
false

Is abundance fitness at least -0.1? Consider `I8G`
false

Check the entry `T7W` : does abundance fitness equal or exceed -0.1?
false

Could you please find out whether `L34I` has abundance fitness that meets -0.1 or exceeds it?
false

hey, is abundance fitness for this one >= -0.1? `L34A`
true

Can `N22L` be said to have abundance fitness at or above -0.1?
false

Is abundance fitness at least -0.1? Consider `E44R`
true

Determine whether measured abundance fitness meets or exceeds -0.1 for `D39Y`
false

Is reported abundance fitness greater than or equal to -0.1 here: `F26A`
true

Attribution: the Human Domainome abundance scans (Beltran et al. 2025)
